So I've got a bunch of compounds here, and I need their IC50 values.
Molecular target: Recombinant Human ENPP-1 Protein (Homo sapiens (Human))
Sequence (P22413 99-925): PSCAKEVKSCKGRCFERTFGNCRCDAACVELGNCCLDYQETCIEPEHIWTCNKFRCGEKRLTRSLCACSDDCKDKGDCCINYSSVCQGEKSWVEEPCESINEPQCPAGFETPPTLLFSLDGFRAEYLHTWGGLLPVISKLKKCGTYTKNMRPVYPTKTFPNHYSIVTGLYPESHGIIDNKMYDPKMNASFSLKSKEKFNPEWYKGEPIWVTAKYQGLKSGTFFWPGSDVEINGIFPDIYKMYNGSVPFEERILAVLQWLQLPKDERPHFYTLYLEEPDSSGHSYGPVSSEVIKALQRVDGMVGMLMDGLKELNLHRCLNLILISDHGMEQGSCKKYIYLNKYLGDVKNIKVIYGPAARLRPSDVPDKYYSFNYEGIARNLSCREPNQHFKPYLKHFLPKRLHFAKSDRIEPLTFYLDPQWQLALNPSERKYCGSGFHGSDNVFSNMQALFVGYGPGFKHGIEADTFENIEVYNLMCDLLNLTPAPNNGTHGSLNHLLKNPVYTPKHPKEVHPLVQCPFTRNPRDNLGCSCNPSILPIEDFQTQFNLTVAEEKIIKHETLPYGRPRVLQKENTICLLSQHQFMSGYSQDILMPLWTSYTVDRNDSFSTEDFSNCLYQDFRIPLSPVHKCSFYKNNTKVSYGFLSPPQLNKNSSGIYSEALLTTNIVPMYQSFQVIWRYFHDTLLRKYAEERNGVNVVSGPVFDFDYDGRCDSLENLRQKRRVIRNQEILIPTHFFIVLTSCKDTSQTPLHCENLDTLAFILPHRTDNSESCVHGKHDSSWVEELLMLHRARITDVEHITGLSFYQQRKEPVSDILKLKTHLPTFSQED
Experiment: ENPP1 Inhibition Assay
Type: biochemical
Procedure: Assay Buffer: 1 mM CaCl2), 0.2 mM ZnCl2, 50 mM Tris, pH 9.0. Substrate: 8 mM Thymidine 5′-monophosphate p-nitrophenol ester sodium salt (Sigma Cat #T4510). […] An eight point serial dilution of drugs was prepared in 10× in assay buffer with the final assay concentrations starting at 10 μM, 3 μM, 1 μM, 0.3 μM and 0 μM. […] The reaction was quantified by measuring absorbance at 405 nm using an Envision plate reader. IC50 values are determined using GraphPad Prism 5 software. […]

COMPOUND: COc1cc2ncnc(N3CCCC(CP(=O)(O)O)CC3)c2cc1OC (stereo not drawn)
IC50: 0.01 to 0.1 µM
--
COMPOUND: COc1cc2ncnc(N3CCCC(CCCP(=O)(O)O)CC3)c2cc1OC (stereo not drawn)
IC50: 0.01 to 0.1 µM

Now look at this one.
[ask] Give IC50 for "COc1cc2ncnc(N3CCC[C@@H](CP(=O)(O)O)CC3)c2cc1OC"
[reply] 0.01 to 0.1 µM
